- MEASURED TARGET: Prostaglandin G/H synthase 1 (Bos taurus)
- Sequence (O62664 whole entry): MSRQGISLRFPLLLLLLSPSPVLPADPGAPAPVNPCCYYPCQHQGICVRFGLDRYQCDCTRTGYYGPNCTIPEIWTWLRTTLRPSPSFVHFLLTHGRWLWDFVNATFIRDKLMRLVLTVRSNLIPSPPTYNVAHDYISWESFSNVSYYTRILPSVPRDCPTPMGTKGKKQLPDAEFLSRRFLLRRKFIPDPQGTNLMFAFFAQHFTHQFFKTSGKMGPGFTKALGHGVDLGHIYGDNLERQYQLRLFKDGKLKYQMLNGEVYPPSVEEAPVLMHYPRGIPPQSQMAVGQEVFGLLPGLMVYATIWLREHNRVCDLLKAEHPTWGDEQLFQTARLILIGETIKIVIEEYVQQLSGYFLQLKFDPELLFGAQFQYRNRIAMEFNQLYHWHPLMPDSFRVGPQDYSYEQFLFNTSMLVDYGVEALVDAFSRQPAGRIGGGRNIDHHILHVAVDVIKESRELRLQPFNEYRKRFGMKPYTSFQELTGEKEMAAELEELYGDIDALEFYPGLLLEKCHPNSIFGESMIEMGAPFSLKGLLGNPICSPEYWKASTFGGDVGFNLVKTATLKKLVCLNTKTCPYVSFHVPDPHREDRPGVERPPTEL
pIC50: −log10 of the molar value.
Class Met: pIC50 at least 7. Class Not met: pIC50 below 7.

INSERT INTO results (compound, label_value) VALUES
  ('Oc1ccc(-c2cnsc2-c2ccc(O)cc2)cc1', 'Not met'),
  ('COc1ccc(-c2sncc2-c2ccc(Cl)cc2)cc1', 'Met'),
  ('COc1ccc(-c2sncc2-c2ccc(C)cc2)cc1', 'Met'),
  ('CS(=O)(=O)c1ccc(-c2ssc(=O)c2-c2ccccc2)cc1', 'Not met'),
  ('CS(=O)(=O)c1ccc(-c2c(-c3ccccc3)ssc2=S)cc1', 'Not met'),
  ('CS(=O)(=O)c1ccc(-c2c(-c3ccccc3)ssc2=O)cc1', 'Not met'),
  ('Cc1ccc(-c2ssc(=O)c2-c2ccc(Cl)cc2)cc1', 'Met'),
  ('CC(Cc1ccc(O)c(O)c1)C(C)Cc1ccc(O)c(O)c1 (stereo not given) [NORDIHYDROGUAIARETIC ACID]', 'Not met'),
  ('CC1(C)Cc2c(-c3ccccc3)c(-c3ccc(Cl)cc3)c(CC(=O)O)n2C1', 'Not met');

###

- ASSAY NOTES: Cytotoxicity against BALB/c mouse polymorphonuclear leukocytes assessed as cell viability after 6 hrs by trypan blue exclusion assay
- STATED CONDITIONS: read-out: Activity
OBSERVABLE: viability at 6 h (%)

INSERT INTO measurements (molecule, result) VALUES
  ('Cc1ccc(-c2c(-c3ccc(S(C)(=O)=O)cc3)ssc2=S)cc1', 94);

###

- MEASURED TARGET: Prostaglandin G/H synthase 2 (Homo sapiens, UniProt P35354)
- Sequence (P35354 whole entry): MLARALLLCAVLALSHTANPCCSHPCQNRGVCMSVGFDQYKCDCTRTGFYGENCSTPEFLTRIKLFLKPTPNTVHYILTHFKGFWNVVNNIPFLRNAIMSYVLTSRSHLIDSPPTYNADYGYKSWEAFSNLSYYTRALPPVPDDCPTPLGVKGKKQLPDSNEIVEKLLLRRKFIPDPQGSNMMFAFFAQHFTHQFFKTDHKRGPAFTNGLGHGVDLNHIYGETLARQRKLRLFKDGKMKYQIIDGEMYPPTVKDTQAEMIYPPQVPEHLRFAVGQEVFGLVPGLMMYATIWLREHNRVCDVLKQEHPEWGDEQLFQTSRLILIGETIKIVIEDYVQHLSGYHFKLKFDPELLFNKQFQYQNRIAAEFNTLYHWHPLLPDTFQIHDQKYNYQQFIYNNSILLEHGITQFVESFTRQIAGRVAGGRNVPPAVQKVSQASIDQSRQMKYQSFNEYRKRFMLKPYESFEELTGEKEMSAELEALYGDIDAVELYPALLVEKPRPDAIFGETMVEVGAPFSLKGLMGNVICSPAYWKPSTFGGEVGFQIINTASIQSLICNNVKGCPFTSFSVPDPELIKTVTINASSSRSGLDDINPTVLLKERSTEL
- ASSAY NOTES: Inhibition of COX2 in LPS-stimulated human blood
OBSERVABLE: IC50

INSERT INTO results (compound, measured_target, result) VALUES
  ('CS(=O)(=O)c1ccc(-c2c(-c3ccccc3)ssc2=O)cc1', 'Prostaglandin G/H synthase 2 (Homo sapiens, UniProt P35354)', '> 50 µM'),
  ('Oc1ccc(-c2ssc(=S)c2-c2ccc(O)cc2)cc1', 'Prostaglandin G/H synthase 2 (Homo sapiens, UniProt P35354)', '> 50 µM'),
  ('Cc1ccc(-c2c(-c3ccc(Cl)cc3)ssc2=S)cc1', 'Prostaglandin G/H synthase 2 (Homo sapiens, UniProt P35354)', '> 50 µM'),
  ('Cc1ccc(-c2ssc(=O)c2-c2ccc(Cl)cc2)cc1', 'Prostaglandin G/H synthase 2 (Homo sapiens, UniProt P35354)', '> 50 µM'),
  ('COc1ccc(-c2sncc2-c2ccc(Cl)cc2)cc1', 'Prostaglandin G/H synthase 2 (Homo sapiens, UniProt P35354)', '> 50 µM'),
  ('CS(=O)(=O)c1ccc(-c2ssc(=S)c2-c2ccccc2)cc1', 'Prostaglandin G/H synthase 2 (Homo sapiens, UniProt P35354)', '> 50 µM'),
  ('Cc1ccc(-c2cnsc2-c2ccc(Cl)cc2)cc1', 'Prostaglandin G/H synthase 2 (Homo sapiens, UniProt P35354)', '> 50 µM'),
  ('COc1ccc(-c2ssc(=S)c2-c2ccc(OC)cc2)cc1', 'Prostaglandin G/H synthase 2 (Homo sapiens, UniProt P35354)', '20 µM'),
  ('Cc1ccc(-c2ssc(=S)c2-c2ccc(Cl)cc2)cc1', 'Prostaglandin G/H synthase 2 (Homo sapiens, UniProt P35354)', '50 µM'),
  ('Oc1ccc(-c2cnsc2-c2ccc(O)cc2)cc1', 'Prostaglandin G/H synthase 2 (Homo sapiens, UniProt P35354)', '> 50 µM'),
  ('CS(=O)(=O)c1ccc(-c2c(-c3ccccc3)ssc2=S)cc1', 'Prostaglandin G/H synthase 2 (Homo sapiens, UniProt P35354)', '> 50 µM'),
  ('Cc1ccc(-c2ssc(=S)c2-c2ccc(S(C)(=O)=O)cc2)cc1', 'Prostaglandin G/H synthase 2 (Homo sapiens, UniProt P35354)', '> 50 µM'),
  ('CS(=O)(=O)c1ccc(-c2ssc(=S)c2-c2ccc(F)cc2)cc1', 'Prostaglandin G/H synthase 2 (Homo sapiens, UniProt P35354)', '> 50 µM'),
  ('Cc1ccc(-c2c(-c3ccc(S(C)(=O)=O)cc3)ssc2=S)cc1', 'Prostaglandin G/H synthase 2 (Homo sapiens, UniProt P35354)', '9 µM'),
  ('COc1ccc(-c2sncc2-c2ccc(C)cc2)cc1', 'Prostaglandin G/H synthase 2 (Homo sapiens, UniProt P35354)', '> 50 µM'),
  ('COc1ccc(-c2cnsc2-c2ccc(OC)cc2)cc1', 'Prostaglandin G/H synthase 2 (Homo sapiens, UniProt P35354)', '0.8 µM'),
  ('Clc1ccc(-c2cnsc2-c2ccc(Cl)cc2)cc1', 'Prostaglandin G/H synthase 2 (Homo sapiens, UniProt P35354)', '4 µM'),
  ('COc1ccc(-c2ssc(=O)c2-c2ccc(OC)cc2)cc1', 'Prostaglandin G/H synthase 2 (Homo sapiens, UniProt P35354)', '1 µM'),
  ('CS(=O)(=O)c1ccc(-c2sncc2-c2ccc(F)cc2)cc1', 'Prostaglandin G/H synthase 2 (Homo sapiens, UniProt P35354)', '9 µM'),
  ('Cc1ccc(-c2c(-c3ccc(Cl)cc3)ssc2=O)cc1', 'Prostaglandin G/H synthase 2 (Homo sapiens, UniProt P35354)', '> 50 µM'),
  ('CC(Cc1ccc(O)c(O)c1)C(C)Cc1ccc(O)c(O)c1 (configuration not stated) [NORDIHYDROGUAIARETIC ACID]', 'Prostaglandin G/H synthase 2 (Homo sapiens, UniProt P35354)', '> 50 µM'),
  ('CS(=O)(=O)c1ccc(-c2ssc(=O)c2-c2ccccc2)cc1', 'Prostaglandin G/H synthase 2 (Homo sapiens, UniProt P35354)', '1.1 µM');

Source of measurements: ChEMBL document CHEMBL1140871
